Where do these numbers come from? They come from the kinase profiling compilation of Christmann-Franck et al. (2016).

Measured kinase still bound, per cent of control, listed per entry.
Target: UniProt:Q13188
Sequence (Q13188 whole entry, looked up): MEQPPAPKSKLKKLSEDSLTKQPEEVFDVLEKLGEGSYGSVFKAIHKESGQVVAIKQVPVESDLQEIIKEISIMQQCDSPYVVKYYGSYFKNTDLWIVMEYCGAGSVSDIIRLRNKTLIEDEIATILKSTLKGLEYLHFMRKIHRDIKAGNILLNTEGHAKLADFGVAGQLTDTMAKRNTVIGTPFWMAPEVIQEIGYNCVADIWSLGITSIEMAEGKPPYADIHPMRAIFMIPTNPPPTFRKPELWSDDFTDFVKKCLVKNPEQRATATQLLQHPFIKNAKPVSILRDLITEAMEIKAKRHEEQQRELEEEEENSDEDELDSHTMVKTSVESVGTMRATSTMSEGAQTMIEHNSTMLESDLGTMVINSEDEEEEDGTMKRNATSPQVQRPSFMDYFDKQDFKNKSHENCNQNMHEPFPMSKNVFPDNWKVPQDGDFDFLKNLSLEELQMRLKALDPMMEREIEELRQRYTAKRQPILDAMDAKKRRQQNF
Test: KINOMEscan competition binding
Conditions: compound 1.0 µM
Express your answer in %, writing the number without its unit.

**Q:** I am curious: what kinase still bound, per cent of control value has been reported for Cc1cc(NC(=O)c2cccc(NC(=O)/C=C/CN(C)C)c2)ccc1Nc1nccc(-c2cccnc2)n1 ?
**A:** 48

More entries:
**Q:** For the compound CN(C)C/C=C/C(=O)Nc1cccc(C(=O)Nc2ccc(Nc3nccc(/C(C#N)=C4\Nc5ccccc5S4)n3)cc2)c1 , what kinase still bound, per cent of control is on record?
**A:** 91

**Q:** Look up kinase still bound, per cent of control: CN(C)C/C=C/C(=O)Nc1cccc(C(=O)Nc2ccc(Nc3nccc(-c4c(-c5ccccc5)nn5ccccc45)n3)cc2)c1
**A:** 99

**Q:** # kinase still bound, per cent of control lookup, item CN(C)C/C=C/C(=O)Nc1cccc(C(=O)Nc2ccc(Nc3nccc(-c4cccnc4)n3)cc2)c1
**A:** 87
